target: human TREM2 (Homo sapiens, UniProt Q9NZC2); construct: expressed in transfected cells; host or cells: HEK293T (HEK293T-hTREM2 cells); assay: TREM2 agonist potency by cellular phosphorylation of Spleen Tyrosine Kinase (Syk), AlphaLisa, HEK293T-hTREM2 cells; format: cell-based; conditions: hTREM2 EC50 Data (HEK293 Cells); Syk phosphorylation, AlphaLisa; read-out: hTREM2 EC50
Sequence (Q9NZC2 19-230): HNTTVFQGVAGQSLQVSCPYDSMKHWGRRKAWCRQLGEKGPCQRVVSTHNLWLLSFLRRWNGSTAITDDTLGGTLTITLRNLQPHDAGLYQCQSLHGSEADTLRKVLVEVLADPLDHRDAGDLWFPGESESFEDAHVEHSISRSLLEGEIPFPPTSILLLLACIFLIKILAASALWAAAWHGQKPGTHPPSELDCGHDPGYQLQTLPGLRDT
Sequence (O43914 22-113 partner): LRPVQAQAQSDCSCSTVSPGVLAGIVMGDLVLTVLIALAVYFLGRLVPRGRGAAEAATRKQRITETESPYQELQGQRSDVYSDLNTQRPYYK
Parameter Measured: EC50

[
  {
    "Molecule": "CCn1cc([C@H]2C[C@@H](c3nc(C45CC(C(F)(F)F)(C4)C5)c4nc(C)c(C)nc4n3)CCO2)ccc1=O [Example 80]",
    "Parameter Measured": "EC50",
    "Experimental Value": "< 100 nM"
  },
  {
    "Molecule": "Cc1nc2nc([C@@H]3CCO[C@H](c4ccc(=O)n(C56CC(C5)C6)c4)C3)nc(C34CC(C(F)(F)F)(C3)C4)c2nc1C [Example 121]",
    "Parameter Measured": "EC50",
    "Experimental Value": "< 100 nM"
  },
  {
    "Molecule": "Cc1nc2nc([C@H]3CCO[C@@H](c4ccc(=O)n(N(C)C)c4)C3)nc(C34CC(C(F)(F)F)(C3)C4)c2nc1C [Example 178]",
    "Parameter Measured": "EC50",
    "Experimental Value": "< 100 nM"
  }
]

---

target: human TREM2 (Homo sapiens, UniProt Q9NZC2); construct: expressed in transfected cells; host or cells: HEK293T (HEK293T-hTREM2 cells); test: TREM2 agonist potency by cellular phosphorylation of Spleen Tyrosine Kinase (Syk), AlphaLisa, HEK293T-hTREM2 cells; assay type: cell-based; conditions: hTREM2 EC50 Data (HEK293 Cells); Syk phosphorylation, AlphaLisa; read-out: hTREM2 EC50
pEC50: −log10 of the molar value.

[
  {
    "Compound": "Cc1nc2nc([C@@H]3CCO[C@H](c4ccc(=O)n(C5CC5)c4)C3)nc(C34CC(C(F)(F)F)(C3)C4)c2nc1C [Example 75]",
    "pEC50": "> 7.00"
  },
  {
    "Compound": "Cc1nc2nc([C@H]3CCO[C@@H](c4ccc(=O)n(C)c4)C3)nc(C34CC(C(F)F)(C3)C4)c2nc1C [Example 31]",
    "pEC50": "> 7.00"
  },
  {
    "Compound": "Cc1cnc2c(C34CC(C(F)(F)F)(C3)C4)nc([C@@H]3CCO[C@H](c4ccc(=O)n(C)c4)C3)nc2n1 [Example 124]",
    "pEC50": "6.30 to 7.00"
  },
  {
    "Compound": "CN(C)c1nc2c(C34CC(C(F)(F)F)(C3)C4)nc([C@H]3CCO[C@@H](c4ccc(=O)n(C)c4)C3)nc2n1C [Example 188]",
    "pEC50": "< 6.30"
  },
  {
    "Compound": "Cc1nc2nc([C@H]3CCO[C@@H](c4ccc(=O)n(C)c4)C3)nc([C@H]3CC[C@H](F)CC3)c2nc1C [Example 42]",
    "pEC50": "> 7.00"
  },
  {
    "Compound": "COc1nc2c(C3CCC(F)(F)CC3)nc([C@H]3CCO[C@@H](c4ccc(=O)n(C)c4)C3)nc2nc1C [Example 138]",
    "pEC50": "> 7.00"
  },
  {
    "Compound": "Cc1cc2c(-c3ccc(F)cc3F)nc(N3C[C@@H](C)O[C@@H](c4ccc(=O)[nH]c4)C3)cc2nc1C [Example 192]",
    "pEC50": "6.30 to 7.00"
  },
  {
    "Compound": "Cc1nc2nc([C@@H]3CCO[C@H](c4ccc(=O)n(C)c4)C3)nc(-c3ccc(C(F)(F)F)cc3F)c2nc1C [Example 5]",
    "pEC50": "> 7.00"
  },
  {
    "Compound": "Cc1nc2nc([C@H]3CCO[C@@H](c4ccc(=O)n(CC5(C#N)CC5)c4)C3)nc(C34CC(C(F)(F)F)(C3)C4)c2nc1C [Example 98]",
    "pEC50": "> 7.00"
  },
  {
    "Compound": "CN(C)c1nc2nc(C3CCOC(c4ccc(=O)n(C)c4)C3)nc(-c3ccc(F)cc3F)c2s1 (centres unmarked) [Example 15]",
    "pEC50": "> 7.00"
  },
  {
    "Compound": "Cc1nc2nc([C@@H]3CCO[C@H](c4ccc(=O)n(CC(F)F)c4)C3)nc(C34CC(C(F)(F)F)(C3)C4)c2nc1C [Example 72]",
    "pEC50": "> 7.00"
  },
  {
    "Compound": "Cc1nc2nc([C@H]3CCO[C@@H](c4ccc(=O)n(C)c4)C3)nc(C34CC(C(F)(F)F)(C3)C4)c2nc1C [Example 25]",
    "pEC50": "> 7.00"
  },
  {
    "Compound": "CN(C)c1nc2nc([C@H]3CCO[C@@H](c4ccc(=O)n(C)c4)C3)nc(C34CC(C(F)(F)F)(C3)C4)c2n1C [Example 202]",
    "pEC50": "6.30 to 7.00"
  },
  {
    "Compound": "Cc1nc2nc([C@@H]3CCO[C@H](c4ccc(=O)n(C)c4)C3)nc(C34CC(C(F)F)(C3)C4)c2nc1C [Example 32]",
    "pEC50": "6.30 to 7.00"
  }
]

---

molecular target: human TREM2 (Homo sapiens, UniProt Q9NZC2); construct: expressed in transfected cells; host or cells: HEK293T (HEK293T-hTREM2 cells); experiment: TREM2 agonist potency by cellular phosphorylation of Spleen Tyrosine Kinase (Syk), AlphaLisa, HEK293T-hTREM2 cells; assay type: cell-based; details: hTREM2 EC50 Data (HEK293 Cells); Syk phosphorylation, AlphaLisa; read-out: hTREM2 EC50

[
  {
    "Compound": "Cc1nc2nc([C@H]3CCO[C@@H](c4ccc(=O)n(C(C)C)c4)C3)nc(C34CC(C(F)(F)F)(C3)C4)c2nc1C",
    "EC50": "< 100 nM"
  },
  {
    "Compound": "Cc1nc2nc([C@H]3CCO[C@@H](c4ccc(=O)n(C)c4)C3)nc(C34CC(CCF)(C3)C4)c2nc1C",
    "EC50": "< 100 nM"
  },
  {
    "Compound": "Cc1nc2nc([C@H]3CCO[C@@H](c4ccc(=O)n(C)c4)C3)nc([C@H]3CC[C@@H](F)CC3)c2nc1C",
    "EC50": "< 100 nM"
  },
  {
    "Compound": "Cc1nc2nc([C@H]3CCO[C@@H](c4ccc(=O)n(N5CC=CC5)c4)C3)nc(C34CC(C(F)(F)F)(C3)C4)c2nc1C",
    "EC50": "< 100 nM"
  },
  {
    "Compound": "CNn1cc([C@H]2C[C@@H](c3nc(C45CC(C(F)(F)F)(C4)C5)c4nc(C)c(C)nc4n3)CCO2)ccc1=O",
    "EC50": "< 100 nM"
  },
  {
    "Compound": "CN(C)c1nc2nc([C@H]3CCO[C@H](c4ccc(=O)n(C)c4)C3)nc(-c3ccc(F)cc3F)c2s1 (stereo in doubt)",
    "EC50": "100 to 500 nM"
  },
  {
    "Compound": "CNn1cc([C@H]2CN(c3nc(-c4ccc(F)cc4F)c4sc(N(C)C)nc4n3)C[C@@H](C)O2)ccc1=O",
    "EC50": "< 100 nM"
  },
  {
    "Compound": "Cc1cnc2nc([C@H]3CCO[C@@H](c4ccc(=O)[nH]c4)C3)nc(C34CC(C(F)(F)F)(C3)C4)c2n1",
    "EC50": "100 to 500 nM"
  },
  {
    "Compound": "Cc1nc2nc([C@H]3CCO[C@@H](c4ccc(=O)n(-c5cscn5)c4)C3)nc(C34CC(C(F)(F)F)(C3)C4)c2nc1C",
    "EC50": "< 100 nM"
  },
  {
    "Compound": "CNn1cc([C@H]2C[C@@H](c3nc(C45CC(C(F)(F)F)(C4)C5)c4cc(C(F)(F)F)c(C)nc4n3)CCO2)ccc1=O",
    "EC50": "< 100 nM"
  },
  {
    "Compound": "[2H]C([2H])([2H])n1cc([C@H]2C[C@@H](c3nc(C45CC(C(F)(F)F)(C4)C5)c4nc(OC)c(C)nc4n3)CCO2)cc(C)c1=O",
    "EC50": "< 100 nM"
  },
  {
    "Compound": "COn1cc([C@H]2C[C@@H](c3nc(C45CC(C(F)(F)F)(C4)C5)c4nc(C)c(C)nc4n3)CCO2)ccc1=O",
    "EC50": "< 100 nM"
  },
  {
    "Compound": "Cc1nc2nc([C@H]3CCO[C@@H](c4ccc(=O)n(N(C)C)c4)C3)nc(C34CC(C(F)(F)F)(C3)C4)c2cc1C(F)(F)F",
    "EC50": "< 100 nM"
  },
  {
    "Compound": "Cc1nc2nc([C@@H]3CCO[C@@H](c4ccc(=O)n(C5CC5)c4)C3)nc(-c3ccc(C(F)(F)F)cc3F)c2nc1C",
    "EC50": "< 100 nM"
  },
  {
    "Compound": "Cc1nc2nc([C@@H]3CCO[C@@H](c4ccc(=O)n(C)c4)C3)nc(-c3ccc(Cl)cc3F)c2nc1C (racemic)",
    "EC50": "< 100 nM"
  },
  {
    "Compound": "Cc1nc2nc([C@H]3CCO[C@@H](c4ccc(=O)n(C)c4)C3)nc(C34CC(C(C)(C)F)(C3)C4)c2nc1C",
    "EC50": "< 100 nM"
  },
  {
    "Compound": "CCCN(CCC)n1cc([C@H]2C[C@@H](c3nc(C45CC(C(F)(F)F)(C4)C5)c4nc(C)c(C)nc4n3)CCO2)ccc1=O",
    "EC50": "< 100 nM"
  },
  {
    "Compound": "Cc1nc2nc([C@H]3CCO[C@@H](c4ccc(=O)n(N5CC6C(C5)C6(F)F)c4)C3)nc(C34CC(C(F)(F)F)(C3)C4)c2nc1C (some centres unmarked)",
    "EC50": "< 100 nM"
  },
  {
    "Compound": "Cc1cc(-n2cc([C@H]3CC(c4nc(C56CC(C(F)(F)F)(C5)C6)c5nc(C)c(C)nc5n4)CCO3)ccc2=O)cs1 (some centres unmarked)",
    "EC50": "< 100 nM"
  },
  {
    "Compound": "Cc1nc2nc([C@H]3CCO[C@@H](c4ccc(=O)n(C(F)F)c4)C3)nc(C34CC(C(F)(F)F)(C3)C4)c2nc1C",
    "EC50": "< 100 nM"
  },
  {
    "Compound": "Cc1nc2nc([C@@H]3CCO[C@@H](c4ccc(=O)n(C)c4)C3)nc(-c3cc(F)c(C(F)(F)F)cc3F)c2nc1C",
    "EC50": "> 500 nM"
  },
  {
    "Compound": "Cc1nc2nc([C@@H]3CCO[C@H](c4ccc(=O)n(C)c4)C3)nc(-c3ccc(C(F)(F)F)cc3F)c2nc1C(F)F",
    "EC50": "< 100 nM"
  },
  {
    "Compound": "Cc1nc2nc(N3C[C@@H](C)O[C@@H](c4ccc(=O)n(C)c4)C3)nc(-c3cnc(C4CC4)s3)c2nc1C",
    "EC50": "< 100 nM"
  },
  {
    "Compound": "Cc1cnc2c(C34CC(C(F)(F)F)(C3)C4)nc([C@H]3CCO[C@@H](c4ccc(=O)n(C)c4)C3)nc2n1",
    "EC50": "< 100 nM"
  },
  {
    "Compound": "Cc1nc2c(C34CC(C(F)(F)F)(C3)C4)nc([C@H]3CCO[C@@H](c4ccc(=O)[nH]c4)C3)nc2c(=O)n1C (racemic)",
    "EC50": "100 to 500 nM"
  },
  {
    "Compound": "Cc1nc2nc(N3C[C@@H](C)O[C@@H](c4ccc(=O)n(C)c4)C3)nc(C34CC(C(F)(F)F)(C3)C4)c2nc1C",
    "EC50": "< 100 nM"
  }
]
